These measurements were taken from patent US9051310B2.

Please respond with reported pIC50 for every item in the list.
- EXPERIMENTAL SYSTEM: glutathione S-transferase (GST)-linked full-length human Syk protein (Homo sapiens, UniProt P43405)
pIC50: −log10 of the molar value.

Worked examples, 3 compounds total:
C[C@H](N)[C@H](Nc1nc(Nc2cncc(-n3cccn3)c2)c(C(N)=O)cc1F)C1CCC1 | > 8.00
CCn1ncc2c(Nc3nc(N[C@H](c4cc(F)cc(F)c4)[C@H](C)N)c(F)cc3C(N)=O)cccc21 | 7.30 to 8.00
CCn1ncc2cc(Nc3nc(N[C@H](C4CCCCC4)[C@H](C)N)c(F)cc3C(N)=O)ccc21 | 7.30 to 8.00

// input: 2 compounds below; output: pIC50 for each
1. Cc1ccc(Nc2nc(N[C@H](C3CC3)[C@H](C)N)c(F)cc2C(N)=O)cc1C
2. NC(=O)c1cc(F)c(N[C@@H]2CCCC[C@@H]2N)nc1Nc1cccc2c1cnn2CC(F)F

## Result
1. > 8.00
2. > 8.00

// input: 2 compounds below; output: pIC50 for each
1. NC(=O)c1cc(F)c(N[C@@H]2CCCC[C@@H]2N)nc1Nc1cnc(-n2nccn2)c(F)c1
2. C[C@H](N)[C@H](Nc1nc(Nc2ccc3c(c2)c(N2CCCC2)nn3C)c(C(N)=O)cc1F)C1CC1

## Result
1: 7.30 to 8.00; 2: 7.30 to 8.00

* * *

- EXPERIMENTAL SYSTEM: glutathione S-transferase (GST)-linked full-length human Syk protein (Homo sapiens)
Please respond with reported IC50 for every item in the list.

Worked examples, 3 molecules total:
Cc1ncc(Nc2nc(N[C@@H]3CCOC[C@@H]3N)c(F)cc2C(N)=O)cc1-n1nccn1 | < 10 nM
CC[C@H](N)[C@@H](CC)Nc1nc(Nc2ccc3c(cnn3CCOC)c2)c(C(N)=O)cc1F | < 10 nM
COCCn1ncc2c(Nc3nc(N[C@@H]4CCCC[C@@H]4N)c(F)cc3C(N)=O)cc(F)cc21 | < 10 nM

// input: 4 molecules below; output: IC50 for each
1. COc1cc(Nc2nc(N[C@H](c3ccccc3F)[C@H](C)N)c(F)cc2C(N)=O)cc(OC)n1
2. COCCn1ncc2c(Nc3nc(N[C@@H]4CCOC[C@@H]4N)c(F)cc3C(N)=O)cncc21
3. COCCn1nc(OC(F)F)c2cc(Nc3nc(N[C@H](CC(C)C)[C@H](C)N)c(F)cc3C(N)=O)ccc21
4. CC[C@@H](Nc1nc(Nc2cnc(OC)c(-n3ccnn3)c2)c(C(N)=O)cc1F)[C@H](C)N

## Result
< 10 nM
10 to 50 nM
< 10 nM
10 to 50 nM

* * *

- EXPERIMENTAL SYSTEM: glutathione S-transferase (GST)-linked full-length human Syk protein (Homo sapiens, UniProt P43405)
- Construct: glutathione S-transferase (GST)-linked full-length human Syk protein; purchased Carna Biosciences; host or cells: Baculovirus expression system
- ASSAY PROCEDURE: Syk enzyme assay
- Assay type: biochemical
- TEST SETTINGS: 0.83 nM Syk, time-resolved fluorescence; read-out: IC50 of Syk-inhibitory activity
pIC50: −log10 of the molar value. Counter-ions that a name gives are not always drawn.
Please respond with reported pIC50 for every item in the list.

// input: 5 compounds below; output: pIC50 for each
1. COCCN(C)c1nn(C)c2ccc(Nc3nc(N[C@H](C4CC4)[C@H](C)N)c(F)cc3C(N)=O)cc12 [Example 2-460]
2. CC[C@H](N)[C@@H](CC)Nc1nc(Nc2ccc3c(c2)c(N(C)C)nn3C)c(C(N)=O)cc1F [Example 2-92]
3. Cc1ncc(Nc2nc(N[C@H](Cc3ccccc3)[C@H](C)N)c(F)cc2C(N)=O)cc1-n1nccn1 [Example 2-422]
4. CCC[C@@H](Nc1nc(Nc2cnc3c(c2)c(OC)nn3C)c(C(N)=O)cc1F)[C@H](C)N [Example 2-252]
5. CNc1ncc(Nc2nc(N[C@@H]3CCCC[C@@H]3N)c(F)cc2C(N)=O)cc1F [Example 2-273]

## Result
1: > 8.00; 2: 7.30 to 8.00; 3: 7.30 to 8.00; 4: > 8.00; 5: > 8.00

// input: 7 compounds below; output: pIC50 for each
1. Cc1nn(C)c2ncc(Nc3nc(N[C@@H]4CCCC[C@@H]4N)c(F)cc3C(N)=O)cc12 [Example 2-239]
2. CCC[C@@H](Nc1nc(Nc2cnc(OCCOC)c(F)c2)c(C(N)=O)cc1F)[C@H](C)N [Example 2-118]
3. C[C@H](N)[C@H](Nc1nc(Nc2cncc3c2cnn3CC(F)F)c(C(N)=O)cc1F)C1CCC1 [Example 2-401]
4. COCCn1nc(OC)c2cc(Nc3nc(N[C@@H]4CCCC[C@@H]4N)c(F)cc3C(N)=O)ccc21 [Example 2-123]
5. CC[C@@H](Nc1nc(Nc2cccc(C(C)=O)c2)c(C(N)=O)cc1F)[C@H](C)N [Example 2-478]
6. Cc1ccc(Nc2nc(N[C@@H]3CCOC[C@@H]3N)c(F)cc2C(N)=O)cn1 [Example 2-219]
7. CN(C)c1nn(C)c2c(F)cc(Nc3nc(N[C@@H]4CCCC[C@@H]4N)c(F)cc3C(N)=O)cc12 [Example 2-184, hydrochloride]

## Result
1. 7.30 to 8.00
2. 7.00 to 7.30
3. > 8.00
4. > 8.00
5. > 8.00
6. 7.30 to 8.00
7. > 8.00

// input: 4 compounds below; output: pIC50 for each
1. COCCn1ncc2c(Nc3nc(N[C@@H](CN)CC(C)C)c(F)cc3C(N)=O)cncc21 [Example 2-386]
2. COc1nn(C)c2ncc(Nc3nc(N[C@@H]4CCCC[C@@H]4N)c(F)cc3C(N)=O)cc12 [Example 2-249]
3. COCCn1ncc2c(Nc3nc(N[C@@H](CN)CC(C)C)c(F)cc3C(N)=O)cccc21 [Example 2-303]
4. COCCn1ncc2c(Nc3nc(N[C@H](C4CC4)[C@H](C)N)c(F)cc3C(N)=O)cc(F)cc21 [Example 2-377]

## Result
> 8.00
> 8.00
> 8.00
> 8.00

* * *

- EXPERIMENTAL SYSTEM: glutathione S-transferase (GST)-linked full-length human Syk protein (Homo sapiens)
MEASURED ENDPOINT: IC50

Worked examples, 2 molecules total:
CCCC[C@@H](Nc1nc(Nc2ccc3cnn(C)c3c2)c(C(N)=O)cc1F)[C@H](C)N [Example 2-38] | < 10 nM
Cc1nn(C)c2ncc(Nc3nc(N[C@H](C4CC4)[C@H](C)N)c(F)cc3C(N)=O)cc12 [Example 2-243] | 10 to 50 nM

// input: 6 molecules below; output: IC50 for each
1. C[C@H](N)[C@H](Nc1nc(Nc2cnc(N3CCOCC3)c(F)c2)c(C(N)=O)cc1F)c1ccccc1F [Example 2-513]
2. CCOc1ncc(Nc2nc(N[C@H](C3CC3)[C@H](C)N)c(F)cc2C(N)=O)cc1-n1ccnn1 [Example 2-163]
3. CSCC[C@@H](Nc1nc(Nc2cnc(C)c(-n3nccn3)c2)c(C(N)=O)cc1F)[C@H](C)N [Example 2-343]
4. COCCn1nc(OC)c2cc(Nc3nc(N[C@@H]4CCOC[C@@H]4N)c(F)cc3C(N)=O)ccc21 [Example 2-329]
5. CCC[C@@H](Nc1nc(Nc2ccc3c(c2)c(N(C)CCOC)nn3C)c(C(N)=O)cc1F)[C@H](C)N [Example 2-459]
6. CC[C@@H](Nc1nc(Nc2cnc(OCCOC)c(-n3nccn3)c2)c(C(N)=O)cc1F)[C@H](C)N [Example 2-202]

## Result
["10 to 50 nM", "10 to 50 nM", "10 to 50 nM", "< 10 nM", "10 to 50 nM", "50 to 100 nM"]

// input: 4 molecules below; output: IC50 for each
1. CCCC[C@@H](Nc1nc(Nc2cccc3c2cnn3CC)c(C(N)=O)cc1F)[C@H](C)N [Example 2-99]
2. CNc1nn(C)c2ccc(Nc3nc(N[C@@H]4CCCC[C@@H]4N)c(F)cc3C(N)=O)cc12 [Example 2-496]
3. CCn1ncc2cc(Nc3nc(N[C@H](c4ccccn4)[C@H](C)N)c(F)cc3C(N)=O)ccc21 [Example 2-381]
4. COC[C@@H](Nc1nc(Nc2ccc3c(c2)c(N(C)C)nn3C)c(C(N)=O)cc1F)[C@H](C)N [Example 2-120]

## Result
1. < 10 nM
2. < 10 nM
3. < 10 nM
4. < 10 nM

// input: 3 molecules below; output: IC50 for each
1. CCC[C@@H](Nc1nc(Nc2cnc(OC)c(-n3ccnn3)c2)c(C(N)=O)cc1F)[C@H](C)N [Example 2-205]
2. CC[C@@H](Nc1nc(Nc2ccc3nn(C)c(N(C)C)c3c2)c(C(N)=O)cc1F)[C@H](C)N [Example 2-16]
3. COc1ncc(Nc2nc(N[C@H](CC(C)C)[C@H](C)N)c(F)cc2C(N)=O)cc1-n1nccn1 [Example 2-112]

## Result
1: 10 to 50 nM; 2: 10 to 50 nM; 3: 10 to 50 nM
